- procedure.text: in vivo
- run.conditions: female, Yorkshire cross, pig, plasma, inhaled or intranasal, 2.2 mg/kg
readout.type: AUC(0-t) (ng·h/mL)
Give the value in ng·h/mL but do not write ng·h/mL after it.

So, `Cc1c(Nc2ncccc2C(=O)O)cccc1C(F)(F)F` ? Its AUC(0-t) was 4800

---

- procedure.text: in vivo
- run.conditions: female, Yorkshire cross, pig, plasma, im, 2.2 mg/kg
readout.type: Tmax
Give me the value, and tack the unit on after it.

Form field Tmax, entry `Cc1c(Nc2ncccc2C(=O)O)cccc1C(F)(F)F` : 12 min

---

- procedure.text: in vivo
- run.conditions: female, Yorkshire cross, pig, plasma, im, 2.2 mg/kg
readout.type: Cmax (ng/mL)
Provide the reading as a plain figure in ng/mL.

Measured Cmax, Cc1c(Nc2ncccc2C(=O)O)cccc1C(F)(F)F [flunixin meglumine] : 4000

---

- procedure.text: in vivo
- run.conditions: female, Yorkshire cross, pig, plasma, inhaled or intranasal, 2.2 mg/kg
readout.type: Cmax (ng/mL)
The figure you give is taken to be in ng/mL; do not add the unit.

Lab note: `Cc1c(Nc2ncccc2C(=O)O)cccc1C(F)(F)F` gave Cmax of 2700

---

- procedure.text: in vivo
- run.conditions: female, Yorkshire cross, pig, plasma, im, 2.2 mg/kg
readout.type: Vd/F (L/kg)
State the answer as a number, implicitly in L/kg.

Vd/F reading for `Cc1c(Nc2ncccc2C(=O)O)cccc1C(F)(F)F` : 3.2

---

- procedure.text: in vivo
- run.conditions: female, Yorkshire cross, pig, plasma, inhaled or intranasal, 2.2 mg/kg
readout.type: Vd/F

According to the records, this compound Cc1c(Nc2ncccc2C(=O)O)cccc1C(F)(F)F [flunixin meglumine] displays Vd/F of 5.4 L/kg

---

- procedure.text: in vivo
- run.conditions: female, Yorkshire cross, pig, plasma, im, 2.2 mg/kg
readout.type: CL/F

Quick note, CL/F for `Cc1c(Nc2ncccc2C(=O)O)cccc1C(F)(F)F` landed at 5 mL/min/kg

---

- procedure.text: Pilot pharmacokinetic study of intranasal flunixin, three catheter sites
- Type: in vivo
- run.conditions: female, Yorkshire cross, plasma, inhaled or intranasal; 3.0 mg/kg IN; one grower pig; all catheter sites; read-out: time to peak concentration (Tmax)
readout.type: Tmax (min)
Give your result in min as a bare value.

In plain terms, `Cc1c(Nc2ncccc2C(=O)O)cccc1C(F)(F)F` has a documented Tmax of 15

---

- procedure.text: Pilot pharmacokinetic study of intranasal flunixin, three catheter sites
- Type: in vivo
- run.conditions: female, Yorkshire cross, pig, plasma, inhaled or intranasal, 3 mg/kg, 3.0 mg/kg IN; one grower pig; jugular vein; read-out: peak concentration (Cmax)
readout.type: Cmax (ng/mL)
Write the number in ng/mL without appending the unit.

Record Cc1c(Nc2ncccc2C(=O)O)cccc1C(F)(F)F [flunixin meglumine] . Reported Cmax: 6820

---

- procedure.text: Pilot pharmacokinetic study of intranasal flunixin, three catheter sites
- Assay type: in vivo
- run.conditions: female, Yorkshire cross, pig, plasma, inhaled or intranasal, 3 mg/kg, 3.0 mg/kg IN; one grower pig; auricular artery; read-out: peak concentration (Cmax)
readout.type: Cmax (ng/mL)
Give a bare numeral; the unit ng/mL is implied.

Lab note: `Cc1c(Nc2ncccc2C(=O)O)cccc1C(F)(F)F` gave Cmax of 6000

---

- procedure.text: Pilot pharmacokinetic study of intranasal flunixin, three catheter sites
- Format: in vivo
- run.conditions: female, Yorkshire cross, pig, plasma, inhaled or intranasal, 3 mg/kg, 3.0 mg/kg IN; one grower pig; femoral artery; read-out: peak concentration (Cmax)
readout.type: Cmax (ng/mL)
Write the value in ng/mL as a bare number.

Sure, the documented Cmax for Cc1c(Nc2ncccc2C(=O)O)cccc1C(F)(F)F [flunixin meglumine] is 5170
